I'd appreciate it if you could supply pIC50 values for the items below.
By convention, pIC50 is the negative base-10 log of a molar concentration.

Challenge: Please state recorded pIC50 (tested on Prothrombin (Homo sapiens)) of N=C(N)NCCCC(NC(=O)OCc1ccccc1)P(=O)(Oc1ccccc1)Oc1ccccc1 (centres undefined)
Response given: 6.11

Challenge: Please state recorded pIC50 (tested on Prothrombin (Homo sapiens)) of COC(=O)NC(Cc1ccc(NC(=N)N)cc1)P(=O)(Oc1ccc(NC(C)=O)cc1)Oc1ccc(NC(C)=O)cc1 (centres undefined)
Response given: 5.95

Challenge: Please state recorded pIC50 (tested on Prothrombin (Homo sapiens)) of CS(=O)(=O)NC(Cc1ccc(NC(=N)N)cc1)P(=O)(Oc1ccccc1)Oc1ccccc1 (centres undefined)
Response given: 3.90

Challenge: Please state recorded pIC50 (tested on Prothrombin (Homo sapiens)) of COC(=O)NC(Cc1ccc(NC(=N)N)cc1)P(=O)(Oc1ccccc1)Oc1ccccc1 (centres undefined)
Response given: 4.77

Attribution: ChEMBL document CHEMBL1138351
